Reference source: the RNAGym collection of RNA variant scans (doi:10.1073/pnas.2313332121)

B1: TPR 5TU (parent)
chain: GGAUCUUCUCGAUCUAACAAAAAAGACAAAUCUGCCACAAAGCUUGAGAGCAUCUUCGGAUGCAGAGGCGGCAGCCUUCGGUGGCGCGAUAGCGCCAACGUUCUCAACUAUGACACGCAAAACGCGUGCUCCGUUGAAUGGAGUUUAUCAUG

# Variants of: B1
# assay-text: polymerase ribozyme fitness, log enrichment relative to wild type (log ratio); higher = more active; in vitro selection for triplet polymerase activity
Variants at the floor of the assay were thinned out.
// 0 (no) strictly below -2 in polymerase ribozyme fitness (log ratio); 1 (yes) otherwise

Below are worked cases with known answers.
mutant-name: U31G C95A C123G
assigned-class: 1 (yes)
--
mutant-name: G58A U82C A147C C149G
assigned-class: 0 (no)
--
mutant-name: C5G A40C C69A G70U A89C
assigned-class: 0 (no)
--
mutant-name: C51U U53G A119U G143C
assigned-class: 0 (no)
--
mutant-name: C5G G65A A66G A137C G141C
assigned-class: 0 (no)
--
mutant-name: A3U C87G
assigned-class: 0 (no)
--
mutant-name: C79A G86A
assigned-class: 0 (no)
--
mutant-name: U78A C93G C108U
assigned-class: 0 (no)

Record G11U A23U C57U G86A ; criterion: polymerase ribozyme fitness (log ratio) no lower than -2. Met?
0 (no)

Same read-out for U6G C10G G50C U55A G58A C72G C95U C96U U144G U148A ?
0 (no)

Same read-out for U55A U77A ?
0 (no)

Same read-out for A49G A97G ?
1 (yes)

Same read-out for A30U A106G ?
0 (no)
